# System: 616215-338-R-J1-PDC spheroids with HUVEC/MSC, viability;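 further: spheroids exposed to agents for seven days before the viability read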
# method-description: Anticancer human tumor 616215-338-R-J1-PDC patient-derived colon adenocarcinoma cell line growth inhibition [PI3K]
# assay-context: second compound 0.01 µM; first compound 0.0316 µM; active compounds read low
outcome-measure: viability, T/C (%)
One number for each entry, in %.

Some solved cases for reference:
Cn1ncc(Cl)c1-c1cc(C(=O)NC(CN)Cc2cccc(F)c2)sc1Cl (stereo unspecified) + COc1c(OCCCN2CCOCC2)ccc2c3n(c(=NC(=O)c4cnc(N)nc4)nc12)CCN3 = 108
C#Cc1c(F)ccc2cc(O)cc(-c3ncc4c(N5CC6CCC(C5)N6)nc(OCC56CCCN5CC(F)C6)nc4c3F)c12 (stereo unspecified) + CC(Nc1ccc2c(c1)OCCn1cc(N3C(=O)OCC3C(F)F)nc1-2)C(N)=O = 90
C[C@@H](NC(=O)c1ncnc(N)c1Cl)c1ncc(C(=O)Nc2cc(C(F)(F)F)c(Cl)cn2)s1 + CC(Nc1ccc2c(c1)OCCn1cc(N3C(=O)OCC3C(F)F)nc1-2)C(N)=O = 102
C#Cc1c(F)ccc2cc(O)cc(-c3ncc4c(N5CC6CCC(C5)N6)nc(OCC56CCCN5CC(F)C6)nc4c3F)c12 (stereo unspecified) + COc1c(OCCCN2CCOCC2)ccc2c3n(c(=NC(=O)c4cnc(N)nc4)nc12)CCN3 = 95.5

Working through the 4 compounds below one at a time, give viability, T/C for each.
1. CC(Cn1ccc(-c2ccc(C#N)c(Cl)c2)n1)NC(=O)c1cc(C(C)O)[nH]n1 (stereo unspecified) + CC(Nc1ccc2c(c1)OCCn1cc(N3C(=O)OCC3C(F)F)nc1-2)C(N)=O
2. CC(C)NCC(C(=O)N1CCN(c2ncnc3c2C(C)CC3O)CC1)c1ccc(Cl)cc1 (stereo unspecified) + COc1c(OCCCN2CCOCC2)ccc2c3n(c(=NC(=O)c4cnc(N)nc4)nc12)CCN3
3. CC(C)n1nc(-c2ccc3oc(N)nc3c2)c2c(N)ncnc21 + COc1c(OCCCN2CCOCC2)ccc2c3n(c(=NC(=O)c4cnc(N)nc4)nc12)CCN3
4. Cn1nccc1Nc1nccc(-c2ccn(C(CO)c3ccc(Cl)c(F)c3)c(=O)c2)n1 (stereo unspecified) + CC(Nc1ccc2c(c1)OCCn1cc(N3C(=O)OCC3C(F)F)nc1-2)C(N)=O

RESULT:
[89.3, 93.1, 122, 100]
